Test system: STREPTOCOCCUS PYOGENES PIU 2548
MEASUREMENT_NOTES: In vitro antibacterial activity, MIC, BHI agar dilution
Format: cell-based
MEASUREMENT_CONTEXT: S. pyogenes PIU 2548, unit assumed
MEASURED_PARAMETER: log10(MIC) (log10 of the value in µg/mL)
Field: value | Transform: log10 | Quantity: MIC | Unit: µg/mL

• CC[C@H]1OC(=O)[C@H](C)C(=O)[C@H](C)[C@@H](O[C@@H]2O[C@H](C)C[C@H](N(C)C)[C@H]2O)[C@](C)(OC)C[C@@H](C)C2=NC[C@H](Cc3cscn3)N3C(=O)O[C@@]1(C)[C@H]3[C@H]2C = -0.41

Problem: What does the record list as log10(MIC) for `CC[C@H]1OC(=O)[C@H](C)C(=O)[C@H](C)[C@@H](O[C@@H]2O[C@H](C)C[C@H](N(C)C)[C@H]2O)[C@](C)(OC)C[C@@H](C)C2=N[C@@H]3CCC[C@@H]3N3C(=O)O[C@@]1(C)[C@H]3[C@H]2C` ?
Result: -0.41

Problem: Entry CC[C@H]1OC(=O)[C@H](C)C(=O)[C@H](C)[C@@H](O[C@@H]2O[C@H](C)C[C@H](N(C)C)[C@H]2O)[C@](C)(OC)C[C@@H](C)C2=NCC(COC(=O)c3ccc4ccccc4n3)N3C(=O)O[C@@]1(C)[C@H]3[C@H]2C (stereo partly shown) : reported log10(MIC) = ?
Result: -0.41

Problem: So what's the measured log10(MIC) for this one? CC[C@H]1OC(=O)[C@H](C)C(=O)[C@H](C)[C@@H](O[C@@H]2O[C@H](C)C[C@H](N(C)C)[C@H]2O)[C@](C)(OC)C[C@@H](C)C2=NCC(COC(=O)c3cc4ccccc4n3C)N3C(=O)O[C@@]1(C)[C@H]3[C@H]2C (stereo partly shown)
Result: -0.41

From: patent US6274715A
